Target: CB1 receptors (Mus musculus, UniProt P47746)
Sequence (P47746 whole entry): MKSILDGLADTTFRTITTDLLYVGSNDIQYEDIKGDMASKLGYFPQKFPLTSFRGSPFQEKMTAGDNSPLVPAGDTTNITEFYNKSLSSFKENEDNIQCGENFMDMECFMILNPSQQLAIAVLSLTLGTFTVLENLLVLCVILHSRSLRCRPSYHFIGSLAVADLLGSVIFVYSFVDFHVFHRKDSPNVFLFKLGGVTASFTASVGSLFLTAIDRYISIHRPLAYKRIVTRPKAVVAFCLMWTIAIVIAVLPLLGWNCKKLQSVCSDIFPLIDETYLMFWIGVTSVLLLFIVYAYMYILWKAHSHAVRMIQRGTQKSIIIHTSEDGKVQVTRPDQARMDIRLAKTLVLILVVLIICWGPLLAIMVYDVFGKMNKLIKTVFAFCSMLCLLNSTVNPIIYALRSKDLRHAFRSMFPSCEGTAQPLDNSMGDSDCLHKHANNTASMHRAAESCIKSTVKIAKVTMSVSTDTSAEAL
Would you kindly list log10(Ki) for each of these molecules?
Values are log10 of Ki in µM.

The following molecules have reported results that may help.
>>> print(df.to_string())
                                   molecule  assay_endpoint  value
0  Cc1ccc2c(c1)oc1c(C(=O)NC3CCCCC3)nn(-c3ccc(Cl)cc3Cl)c12 [Example 3.23]       log10(Ki)   0.10
1  Cc1ccc2c(c1)oc1c(C(=O)NN3CCCCC3)nn(-c3ccc(Cl)cc3Cl)c12 [Example 3.20]       log10(Ki)   0.25
2  Cc1ccc2c(c1)oc1c(C(=O)NC34CC5CC(CC(C5)C3)C4)nn(-c3ccc(Cl)cc3Cl)c12 [Example 3.28]       log10(Ki)  -0.44
3  Cc1ccc2c(c1)oc1c(C(=O)NN3CCCC3)nn(-c3ccc(Cl)cc3Cl)c12 [Example 3.21]       log10(Ki)   0.43
4  CC1(C)C2CCC(CNC(=O)c3nn(-c4ccc(Cl)cc4Cl)c4c3CCCc3cc(Cl)ccc3-4)C1C2 (centres unmarked) [Example 3.4]       log10(Ki)  -2.59
5  Cc1ccc2c(c1)oc1c(C(=O)NC3C4(C)CCC(C4)C3(C)C)nn(-c3ccc(Cl)cc3Cl)c12 (centres unmarked) [Example 3.26]       log10(Ki)  -0.59

Hi there! I need log10(Ki) for each item below, if you can.
1. CC1(C)C2CCC(CNC(=O)c3nn(-c4ccc(Cl)cc4Cl)c4c3CCCc3ccc(Cl)cc3-4)C1C2 (centres unmarked) [Example 3.1]
2. Cc1ccc2c(c1)oc1c(C(=O)NC3C4CC5CC(C4)CC3C5)nn(-c3ccc(Cl)cc3Cl)c12 (centres unmarked) [Example 3.29]
3. Cc1ccc2c(c1)oc1c(C(=O)N[C@@H]3C[C@H]4C[C@@H]([C@@H]3C)C4(C)C)nn(-c3ccc(Cl)cc3Cl)c12 [Example 3.25]
4. Cc1ccc2c(c1)Cc1c(C(=O)NCC3CCC4CC3C4(C)C)nn(-c3ccc(Cl)cc3Cl)c1-2 (centres unmarked) [Example 3.15]
5. CC1(C)C2CCC(CNC(=O)c3nn(-c4ccc(Cl)cc4Cl)c4c3CCOc3cc(Cl)ccc3-4)C1C2 (centres unmarked) [Example 3.3]

1. -1.70
2. -0.27
3. 0.38
4. -0.46
5. -1.66

====

Would you kindly list melting point for each of these compounds?

Hi there! I need melting point for each item below, if you can.
1. CC1(C)C2CCC(CNC(=O)c3nn(-c4ccc(Cl)cc4Cl)c4c3CCOc3cc(Cl)ccc3-4)C1C2 (stereo not drawn)
2. Cc1ccc2c(c1)oc1c(C(=O)NN3CCCCC3)nn(-c3ccc(Cl)cc3Cl)c12
3. Cc1ccc2c(c1)oc1c(C(=O)N[C@H]3C[C@@H](C)CC[C@@H]3C(C)C)nn(-c3ccc(Cl)cc3Cl)c12
4. Cc1ccc2c(c1)oc1c(C(=O)NN3CCCC3)nn(-c3ccc(Cl)cc3Cl)c12
5. Cc1ccc2c(c1)oc1c(C(N)=O)nn(-c3ccc(Cl)cc3Cl)c12
6. Cc1ccc2c(c1)oc1c(C(=O)NC3CC4CCC3(C)C4(C)C)nn(-c3ccc(Cl)cc3Cl)c12 (stereo not drawn)
7. Cc1ccc2c(c1)oc1c(C(=O)NC3CCCCC3)nn(-c3ccc(Cl)cc3Cl)c12
8. Cc1ccc2c(c1)oc1c(C(=O)NC3C4CC5CC(C4)CC3C5)nn(-c3ccc(Cl)cc3Cl)c12 (stereo not drawn)

142 to 143 °C
155 to 157 °C
70 to 72 °C
90 to 92 °C
185 to 186 °C
78 to 80 °C
140 to 142 °C
209 to 211 °C

Hi there! I need melting point for each item below, if you can.
1. Cc1ccc2c(c1)oc1c(C(=O)NC3C4(C)CCC(C4)C3(C)C)nn(-c3ccc(Cl)cc3Cl)c12 (stereo not drawn)
2. Cc1ccc2c(c1)oc1c(C(=O)NN3CCOCC3)nn(-c3ccc(Cl)cc3Cl)c12
3. Cc1ccc2c(c1)oc1c(C(=O)NC34CC5CC(CC(C5)C3)C4)nn(-c3ccc(Cl)cc3Cl)c12
4. Cc1ccc2c(c1)oc1c(C(=O)N[C@@H]3C[C@H]4C[C@@H]([C@@H]3C)C4(C)C)nn(-c3ccc(Cl)cc3Cl)c12

84 to 86 °C
178 to 180 °C
210 to 212 °C
85 to 87 °C
